Source of measurements: PubChem BioAssay AID2060882

- Tested on: 898857-211-R-J1-PDC complex spheroids, growth % test/control;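 also: spheroids exposed to compound for seven days before readout; 100% = DMSO vehicle control wells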
- assay_notes: Anticancer human tumor 898857-211-R-J1-PDC patient-derived melanoma cell line growth inhibition [RAS]
- condition_label: second compound 0.0949 µM; first compound 0.0316 µM; hits give low values
test_readout: viability, T/C (%)
Return type: number; implicit unit %.

Please review the following examples before continuing.
>>> numeric_value("CC(=O)OC12COC1CC(O)C1(C)C(=O)C(O)C3=C(C)C(OC(=O)C(O)C(NC(=O)OC(C)(C)C)c4ccccc4)CC(O)(C(OC(=O)c4ccccc4)C21)C3(C)C (stereo not drawn) + CCn1c(-c2cc(N3CCN(C)CC3)cnc2C(C)OC)c2c3cc(ccc31)-c1csc(n1)CC(NC(=O)C1CC1C)C(=O)N1CCCC(N1)C(=O)OCC(C)(C)C2")
12.1
>>> numeric_value("C[C@@H](NC(=O)c1ncnc(N)c1Cl)c1ncc(C(=O)Nc2cc(C(F)(F)F)c(Cl)cn2)s1 + CCn1c(-c2cccnc2C(C)OC)c2c3cc(ccc31)N1CCOC(CC(NC(=O)C(C(C)C)N(C)C(=O)C3(F)CCN(C(=O)C#CC(C)(C)N(C)C)CC3)C(=O)N3CCCC(N3)C(=O)OCC(C)(C)C2)C1")
105

Could you now look at the following compound, please?
Req: Requested read-out: viability, T/C. Entry: C=CC(=O)Nc1cc(Nc2nccc(-c3cn(C)c4ccccc34)n2)c(OC)cc1N(C)CCN(C)C + CCn1c(-c2cccnc2C(C)OC)c2c3cc(ccc31)N1CCOC(CC(NC(=O)C(C(C)C)N(C)C(=O)C3(F)CCN(C(=O)C#CC(C)(C)N(C)C)CC3)C(=O)N3CCCC(N3)C(=O)OCC(C)(C)C2)C1
Resp: 92.3
